From: ChEMBL document CHEMBL4303084

Assay: Cell viability measured by CellTiter-Glo assay in Vero cells at MOI 0.05 after 72hr
Details: chlorocebus sabaeus, Vero cells
Outcome Measure: CC50 at 72 h

Q: Using the record for CN(C)C(=O)COC(=O)Cc1ccc(OC(=O)c2ccc(NC(=N)N)cc2)cc1 , report its CC50 at 72 h.
Result: > 50 µM

Q: And then CCCCCCO[C@@H](C)c1cccc(-c2csc(NC(=O)c3cc(Cl)c(/C=C(\C)C(=O)O)c(Cl)c3)n2)c1OC , what is it?
Result: 14.6 µM

Q: Here is the next molecule: CCc1nc(C(N)=O)c(Nc2ccc(N3CCC(N4CCN(C)CC4)CC3)c(OC)c2)nc1NC1CCOCC1
Result: 37.2 µM

Q: And the next one, Cc1cc(Nc2ncc(Cl)c(Nc3ccccc3S(=O)(=O)C(C)C)n2)c(OC(C)C)cc1C1CCNCC1 ?
Result: 6.84 µM

Q: What do you get for C[C@@H]1O[C@@H](O[C@H]2C[C@@H](O)[C@]3(CO)[C@H]4[C@H](O)C[C@]5(C)[C@@H](C6=CC(=O)OC6)CC[C@]5(O)[C@@H]4CC[C@]3(O)C2)[C@H](O)[C@H](O)[C@H]1O [OUABAIN OCTAHYDRATE] ?
Result: > 50 µM

Q: Please answer likewise for C[C@H]1O[C@@H](O[C@H]2[C@@H](O)C[C@H](O[C@H]3[C@@H](O)C[C@H](O[C@H]4CC[C@@]5(C)[C@H](CC[C@@H]6[C@@H]5C[C@@H](O)[C@]5(C)[C@@H](C7=CC(=O)OC7)CC[C@]65O)C4)O[C@@H]3C)O[C@@H]2C)C[C@H](O)[C@@H]1O
Result: > 50 µM

* * *

Experiment: Selectivity index for antiviral vs cytotoxic activity in Vero cells (CC50/IC50)
Conditions: monkey, vero
Outcome Measure: selectivity ratio

Q: Reported selectivity ratio, compound CCN(CC)CCCC(C)Nc1c2ccc(Cl)cc2nc2ccc(OC)cc12 (stereo unspecified) : ____
Result: 0.29

* * *

Assay: Cell viability measured by CellTiter-Glo assay in Vero cells at MOI 0.05 after 72hr
Conditions: chlorocebus sabaeus, Vero cells
T if CC50 at 72 h is below 10 µM. F if not; exact matches included in F.

Q: # check: CC50 at 72 h < 10 µM for CCN(CC)CCOc1ccc(C(=C(Cl)c2ccccc2)c2ccccc2)cc1
Result: F

Q: Can you check C1CCC(C(CC2CCCCN2)C2CCCCC2)CC1 (centres undefined) next?
Result: T

Q: How about this molecule: COc1ccc2cc1Oc1ccc(cc1)C[C@H]1c3c(cc4c(c3Oc3cc5c(cc3OC)CCN(C)[C@@H]5C2)OCO4)CCN1C
Result: F

Q: Same again, this time with CC[C@@H](C(=O)[C@@H](C)[C@@H](O)[C@H](C)[C@@H]1O[C@@H]([C@@H](CC)C(=O)O)CC[C@@H]1C)[C@H]1O[C@]2(C=C[C@@H](O)[C@]3(CC[C@@](C)([C@H]4CC[C@](O)(CC)[C@H](C)O4)O3)O2)[C@H](C)C[C@@H]1C
Result: F

Q: What do you get for CCCCc1oc2ccc(NS(C)(=O)=O)cc2c1C(=O)c1ccc(OCCCN(CCCC)CCCC)cc1 ?
Result: T

Q: Now this one: CC1=NN(c2ccc(C)c(C)c2)C(=O)/C1=N\Nc1cccc(-c2cccc(C(=O)O)c2)c1O
Result: F

Q: Would you mind doing CCN1CCN(Cc2ccc(Nc3ncc(F)c(-c4cc(F)c5nc(C)n(C(C)C)c5c4)n3)nc2)CC1 as well?
Result: F

Q: Another molecule to check: COc1ccc2cc1Oc1ccc(cc1)C[C@H]1c3cc(c(OC)cc3CCN1C)Oc1c(OC)c(OC)cc3c1[C@H](C2)N(C)CC3
Result: F

Q: Quick one: CCCCCC(=O)O[C@]1(C(C)=O)CC[C@H]2[C@@H]3CCC4=CC(=O)CC[C@]4(C)[C@H]3CC[C@@]21C [HYDROXYPROGESTERONE CAPROATE]
Result: F

Q: // same read-out, input: COc1cc2c3cc1Oc1c(OC)c(OC)cc4c1[C@@H](Cc1ccc(O)c(c1)Oc1ccc(cc1)C[C@@H]3N(C)CC2)N(C)CC4
Result: F

Q: Queued: CC(C)(C)c1cc(C(C)(C)C)c(NC(=O)c2c[nH]c3ccccc3c2=O)cc1O
Result: F

Q: Now the same for O=C(Nc1ccc([N+](=O)[O-])cc1Cl)c1cc(Cl)ccc1O [NICLOSAMIDE]
Result: F
